GI50 values recorded for SNB-19 CNS

# annotated cases, reported GI50 shown
{"compound": "CS(=O)(=O)c1ccc(Oc2cc(F)cc(C#N)c2)c2c1[C@H](O)[C@H](F)[C@H]2F", "GI50": "> 100000 nM"}
{"compound": "O=C(c1ccccc1)c1c(C(F)(F)F)n([O-])c2ccc(F)cc2[n+]1=O", "GI50": "1870 nM"}
{"compound": "C/C(=N\\NC(=O)c1ccc(C(C)(C)C)cc1)c1ccc(O)cc1O", "GI50": "2360 nM"}

Query: Name the recorded GI50 of CCCCCCCCCCCC[C@@H](O)[C@H]1CC[C@H]([C@H](O)CCCC[C@H](O)CCCCC[C@@H](O)CC2=C[C@H](C)OC2=O)O1 , assay system SNB-19 CNS.
Result: 2320 nM

Query: Name the recorded GI50 of COc1ccc([As]=[As]c2ccc(OC)c(NCS(=O)(=O)O)c2)cc1NCS(=O)(=O)O (stereo not drawn) , assay system SNB-19 CNS.
Result: 1820 nM

Query: Name the recorded GI50 of COc1cc(/C=C2\CN(S(=O)(=O)c3ccc(C)cc3)C/C(=C\c3cc(CN4CCOCC4)c(O)c(OC)c3)C2=O)cc(CN2CCOCC2)c1O , assay system SNB-19 CNS.
Result: 15800 nM

Query: Name the recorded GI50 of CCN(Cc1cccnc1)c1ccc(CO)c(Cl)c1 , assay system SNB-19 CNS.
Result: > 100000 nM

Query: Name the recorded GI50 of OCc1cn(Cc2ccc(Cl)cc2)c2ccccc12 , assay system SNB-19 CNS.
Result: 15800 nM

Query: Name the recorded GI50 of CC(C)Cc1ccc(C(C)C(=O)NCc2ccc(Cn3c(=O)sn(CCCCl)c3=O)cc2)cc1 (stereo not drawn) , assay system SNB-19 CNS.
Result: 1710 nM

Query: Name the recorded GI50 of COc1ccc(-c2nn(C(=O)NCCN(C)C)cc2-c2ccncc2)cc1Cl , assay system SNB-19 CNS.
Result: 5150 nM

Query: Name the recorded GI50 of Cc1cc2c(cc1C)[n+](=O)c(C(=O)C(C)(C)C)c(C(F)(F)F)n2[O-] , assay system SNB-19 CNS.
Result: 56200 nM

Query: Name the recorded GI50 of COc1cccc(C(=O)c2sc(Nc3ccc(N4CCN(C(C)C)CC4)cc3)nc2N)c1 , assay system SNB-19 CNS.
Result: 1040 nM

Query: Name the recorded GI50 of O=C1c2ccccc2-c2c1c1ccc([N+](=O)[O-])cc1c(=O)n2CCCN1CCOCC1 , assay system SNB-19 CNS.
Result: 378 nM
